target: Fuc(a1-2)Gal(b1-3)GlcNAc(b1-3)[Gal(b1-4)GlcNAc(b1-6)]Gal(b1-4)Glc; assay: glycan array binding signal (z-score within array); higher = stronger binding; details: glycan notation: IUPAC condensed, linker removed
Many of the other results were omitted from the sample, so the strongest signals are more common in it than they were.
RESULT_TYPE: glycan array binding signal (z-score)
# answer = number (no unit)

Guide cases for glycan array binding signal (z-score), answers given:
BINDER: LSectin (Mus musculus), Q8BNX1 (protein) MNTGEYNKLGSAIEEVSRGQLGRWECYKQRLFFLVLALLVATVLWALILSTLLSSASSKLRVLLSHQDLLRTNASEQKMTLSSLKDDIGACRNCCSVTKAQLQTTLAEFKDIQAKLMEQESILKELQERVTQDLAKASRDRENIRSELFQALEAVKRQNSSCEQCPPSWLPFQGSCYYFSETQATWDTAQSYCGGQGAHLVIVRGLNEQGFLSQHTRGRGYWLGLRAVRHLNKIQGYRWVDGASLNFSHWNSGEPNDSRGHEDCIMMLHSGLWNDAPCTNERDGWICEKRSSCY
glycan array binding signal (z-score): -0.188
--
BINDER: MpAFP NterminalRI GFP (Marinomonas primoryensis) (protein) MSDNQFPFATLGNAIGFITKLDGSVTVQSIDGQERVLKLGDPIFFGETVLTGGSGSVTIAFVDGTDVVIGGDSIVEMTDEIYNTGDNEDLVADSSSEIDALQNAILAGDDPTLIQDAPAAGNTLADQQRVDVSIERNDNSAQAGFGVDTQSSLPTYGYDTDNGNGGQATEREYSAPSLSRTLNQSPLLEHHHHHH
glycan array binding signal (z-score): -0.221

Fill in the blank: the reported glycan array binding signal (z-score) of UDA (Urtica dioica), P11218 (protein) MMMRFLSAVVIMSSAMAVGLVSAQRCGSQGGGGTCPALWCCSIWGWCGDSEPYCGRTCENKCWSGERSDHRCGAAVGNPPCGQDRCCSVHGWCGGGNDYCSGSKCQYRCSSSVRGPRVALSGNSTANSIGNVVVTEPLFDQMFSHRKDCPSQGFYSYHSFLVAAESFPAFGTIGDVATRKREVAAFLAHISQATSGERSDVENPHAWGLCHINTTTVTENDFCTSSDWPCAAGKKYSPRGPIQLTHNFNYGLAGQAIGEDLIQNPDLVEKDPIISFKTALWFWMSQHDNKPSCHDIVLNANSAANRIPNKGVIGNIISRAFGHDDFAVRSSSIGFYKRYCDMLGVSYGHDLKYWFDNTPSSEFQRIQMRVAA is ____.
-0.109
